experiment-description: chemical genetic growth profiling, strain panel (AID 1159580);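 also: tested at 20 µM; growth read once vehicle control cultures reached saturation at 30 °C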
settings: S. cerevisiae deletion strains, growth OD, locus YER016W, strain bim1, stronger effect = lower value
About 2,000 (36%) of roughly 5,500 compounds were called active. Inconclusive results (about 18%) are left out. The list shows a part of the results.
Entries whose normalized growth is below 1 take T; entries at or above 1 take F.

Take the molecule O=C1[O][Bi][O]c2ccccc21 and say whether its normalized growth is less than 1.
F

Try this molecule too: O=C(O[C@@H]1Cc2c(O)cc(O)cc2O[C@@H]1c1cc(O)c(=O)c2c(O)c(O)cc([C@H]3Oc4cc(O)cc(O)c4C[C@H]3OC(=O)c3cc(O)c(O)c(O)c3)c2c1)c1cc(O)c(O)c(O)c1
T

Further, for O=C(OC1Cc2c(O)cc(O)cc2OC1c1cc(=O)c(O)c2c(O)c(O)cc(C3Oc4cc(O)cc(O)c4CC3O)c2c1)c1cc(O)c(O)c(O)c1 (configuration not stated) ?
T

Here is the next molecule: O=C(O[C@@H]1Cc2c(O)cc(O)cc2O[C@@H]1c1cc(O)c(=O)c2c(O)c(O)cc([C@H]3Oc4cc(O)cc(O)c4C[C@H]3O)c2c1)c1cc(O)c(O)c(O)c1
T

Would you kindly repeat that for COc1ccc2c(c1)CCC1C2CC[C@@]2(C)C1CC[C@@H]2O (some centres not stated) ?
T

Now this one: C[C@]12CCC3c4ccc(OS(=O)(=O)O)cc4CCC3C1CC[C@H]2O (some centres not stated)
T
